Collected TGI values appear next to each entry.
System: HOP-62 NSCLC
Assay: NCI tumour cell line growth inhibition, 48 h

# input Find the recorded TGI belonging to `O=C1Cc2c([nH]c3ccccc23)-c2cc(Br)ccc2N1` and report it.
# output > 100 µM

# input Lookup `COc1cc(CNc2nc3c(NC(C)=O)cc(C(F)(F)F)cc3nc2-c2ccccc2)cc(OC)c1OC`
# output > 100 µM

# input Lookup `O=[N+]([O-])C(/C=C(\Cl)[N+](=O)[O-])=C(Nc1ccccc1)Nc1ccccc1`
# output 4.8 µM

Next:
# input Find the recorded TGI belonging to `Fc1nc(Sc2ncnc3nc[nH]c23)nc(-c2c3ccccc3c3sc4ccccc4n23)n1` and report it.
# output > 100 µM

# input Lookup CC(C)C(Nc1c2ccccc2[n+](C)c2ccccc12)C(=O)O (stereo not given)
# output > 100 µM

# input Lookup COc1cc2c(cc1OC)C(Sc1ccc(Cl)cc1)c1c(nc(N)c(C#N)c1N)O2 (stereo not given)
# output 2.88 µM

====

Collected TGI values appear next to each entry.
Test system: MCF7 breast
Assay: NCI tumour cell line growth inhibition, 48 h

# input Find the recorded TGI belonging to `COc1cc(C(=O)Nc2ccc(-c3nc4ccccc4[nH]3)cc2)cc(OC)c1OC` and report it.
# output 30.6 µM

# input Lookup `Nc1ccc2c3c1cccc3c(=O)n1c3ccc(Cc4ccc5c(c4)nc4c6ccc(N)c7cccc(c(=O)n54)c76)cc3nc21`
# output > 100 µM

# input Lookup `CN=C1C=C(/N=C2/C=C(N/C(=C\C#N)C(C)(C)O)OC2(C)C)OC1(C)C`
# output > 100 µM

# input Lookup c1ccc(CN2CCC(CNc3ncnc4ccccc34)C2)cc1 (stereo not given)
# output > 100 µM

====

Collected TGI values appear next to each entry.
System: PC-3 prostate
Assay: NCI tumour cell line growth inhibition, 48 h

# input Find the recorded TGI belonging to CC(C)NC(=O)OCCN=C1c2ccccc2C(Br)C(Br)c2ccccc21 (stereo unspecified) and report it.
# output > 48.8 µM

Next:
# input Find the recorded TGI belonging to CC1CC[C@@]2(OC1)OC1C[C@H]3[C@@H]4CC=C5C[C@@H](OC6OC(CO)C(OC7OC(CO)C(O)C(O)C7O)C(O)C6OC6OC(C)C(O)C(O)C6O)CC[C@]5(C)[C@H]4CC[C@]3(C)C1[C@@H]2C (stereo partly specified) and report it.
# output 0.93 µM

# input Lookup `CC(C)OC(=O)c1cc(NC(=S)OC(C)C)ccc1Cl`
# output 50.9 µM

# input Lookup `O=C([CH-]C(=O)c1ccccc1)c1ccccc1.[CH2-]C.[CH2-]C.[Tl+3]`
# output > 100 µM

# input Lookup `Nc1ncnc2c1ncn2CCCNO`
# output > 100 µM

====

System: CCRF-CEM leukemia
Assay: NCI tumour cell line growth inhibition, 48 h
property-label: TGI

Recorded TGI, per entry:
# input Find the recorded TGI belonging to `COc1ccc(-c2nn(-c3cccc(Cl)c3)cc2-c2c(C#N)c(=O)n3[nH]c(-c4ccc(C)o4)nc3c2C#N)cc1` and report it.
# output > 50 µM

# input Lookup CN(C)CC(=O)N1CCc2c([nH]c3ccccc23)C1c1cccnc1 (centres undefined)
# output > 100 µM

# input Lookup `CCN(CCCl)c1cc(CN(C)C)cc(NC(=O)c2ccc(C(=O)Nc3cccc(N(CCCl)NN)c3)cc2)c1`
# output 0.115 µM

# input Lookup CCOC(=O)CCC(C(=O)OCC)n1nnc2cc(Nc3c(C)[n+]([O-])c4cc(Cl)ccc4[n+]3[O-])ccc21 (centres undefined)
# output > 100 µM

# input Lookup `COc1ccc(Nc2nc(N)c(C(=O)c3ccco3)s2)cc1`
# output > 56.1 µM

Next:
# input Find the recorded TGI belonging to `COc1cc(OC)c(OC)cc1/C=C\c1ccnc2ccccc12` and report it.
# output 67.8 µM

# input Lookup `COc1ccc(/C=C2\N=C3N(Cc4ccccc4)C=C(N)N3C2=O)cc1`
# output > 100 µM

# input Lookup `C/C(=C\C(=O)O)C(=O)N(C)c1ccccc1I`
# output > 100 µM

====

Test system: T-47D breast
Test: NCI tumour cell line growth inhibition, 48 h
property-label: TGI

# input Find the recorded TGI belonging to COc1cc(/C=C2\C(=O)N(c3ccc(Cl)cc3)C(c3ccccc3)S2(=O)=O)cc(OC)c1OC (centres undefined) and report it.
# output > 100 µM

Next:
# input Find the recorded TGI belonging to `O=C([CH-]C(=O)c1ccccc1)c1ccccc1.[CH2-]C.[CH2-]C.[Tl+3]` and report it.
# output > 100 µM

# input Lookup Cc1nc2sc(C(=O)Nc3cccc(Cl)c3)c(N)c2cc1C(O)c1ccccc1 (centres undefined)
# output 33 µM

# input Lookup `COc1cc([N+](=O)[O-])c(S(=O)(=O)O)cc1-[n+]1nc(C(=O)Nc2ccccc2)nn1-c1ccc([N+](=O)[O-])c(S(=O)(=O)[O-])c1`
# output > 100 µM

# input Lookup Nc1nc2c(ncn2C2OC(CO)C(O)C2O)c(=O)[nH]1 (centres undefined)
# output > 100 µM

# input Lookup COc1ccc2cc1Oc1ccc(cc1)CC1c3c(cc(OC)c4c3Oc3cc5c(cc3O4)CCNC5C2)CCN1C (centres undefined)
# output 3.53 µM

# input Lookup CC1CC(C)(C)CC(OCCN2CCCCC2)(c2ccccc2)C1 (centres undefined)
# output 29.5 µM

# input Lookup `Cc1cc(S(=O)(=O)NC2=NCc3c(F)cccc3N2)c(S)cc1Cl`
# output > 100 µM

# input Lookup `C/C(=C\C(=O)O)C(=O)N(C)c1ccccc1I`
# output > 100 µM

====

System: BT-549 breast
Assay: NCI tumour cell line growth inhibition, 48 h; in the data active means GI50 below about 0.43 µM; inactive means the rest
Write down the outcome that applies. Available outcomes: TRUE for active, FALSE for inactive

# input Dear colleague, could you share the recorded outcome for CCOC(=O)c1c(-c2ccc(Cl)cc2)c(C#N)c(=S)n(C2OC(COC(C)=O)C(OC(C)=O)C(OC(C)=O)C2OC(C)=O)c1C (centres undefined) when you have a moment?
# output FALSE

Next:
# input Dear colleague, could you share the recorded outcome for `COc1cc(/C=C/C(=O)/C=C/c2ccc(-n3ccnc3)cc2)ccc1O` when you have a moment?
# output FALSE

# input Lookup `CC[C@]1(O)C[C@@H]2CN(CCc3c([nH]c4ccccc34)[C@@](C(=O)OC)(c3cc4c(cc3OC)N(C)[C@H]3[C@@](O)(C(=O)OC)[C@H](OC(=O)CCCBr)[C@]5(CC)C=CCN6CC[C@]43[C@@H]65)C2)C1`
# output TRUE

# input Lookup `COc1ccccc1CNCCCN1C(=O)c2ccc3c4c(ccc(c24)C1=O)C(=O)N(CCCNCCCCN)C3=O`
# output FALSE

====

Test system: CCRF-CEM leukemia
Assay: NCI tumour cell line growth inhibition, 48 h
Collected TGI values appear next to each entry.

Recorded TGI, per entry:
# input Find the recorded TGI belonging to COc1ccc2cc1Oc1ccc(cc1)CC1c3c(cc(OC)c4c3Oc3cc5c(cc3O4)CCNC5C2)CCN1C (stereo not given) and report it.
# output 3.61 µM

# input Lookup `CCOC(=O)C(=O)Nc1nc2ccc(OC)cc2s1`
# output > 100 µM

# input Lookup `c1csc(-c2cc(-c3ccsc3)cs2)c1`
# output > 100 µM

Moving on to another compound below.
# input Find the recorded TGI belonging to `Oc1ccccc1/C=N/c1nc(-c2ccccc2)cs1` and report it.
# output 65 µM

====

Collected TGI values appear next to each entry.
Test system: SK-OV-3 ovarian
Assay: NCI tumour cell line growth inhibition, 48 h

Recorded TGI, per entry:
# input Find the recorded TGI belonging to `CN(CC(=O)O)c1ncc2c(n1)-c1ccccc1CC2` and report it.
# output > 100 µM

# input Lookup `CC(C)(C)c1cnc(CSc2cnc(NC(=O)C3CCNCC3)s2)o1`
# output > 100 µM

# input Lookup CC1CC[C@@]2(OC1)OC1C[C@H]3[C@@H]4CC=C5C[C@@H](OC6OC(CO)C(OC7OC(CO)C(O)C(O)C7O)C(O)C6OC6OC(C)C(O)C(O)C6O)CC[C@]5(C)[C@H]4CC[C@]3(C)C1[C@@H]2C (stereo not given in full)
# output 6.96 µM

# input Lookup `CCOc1ccccc1NC(=O)C1=C(C)NC(C)=C(C(=O)Nc2ccccc2OCC)C1c1ccc2c(c1)OCO2`
# output > 100 µM

# input Lookup `COc1cc(C(=O)Nc2ccc(-c3nc4ccccc4[nH]3)cc2)cc(OC)c1OC`
# output 30.6 µM

Next:
# input Find the recorded TGI belonging to `O=c1[nH]c2ccccc2c(=O)n1/N=C\c1ccccc1O` and report it.
# output > 100 µM

# input Lookup CC(C)NC(=O)OCCN=C1c2ccccc2C(Br)C(Br)c2ccccc21 (stereo not given)
# output > 62.9 µM

# input Lookup CCOC(=O)CC1C(C(=O)OCC)=Cn2c([nH]c3cccc4cccc2c43)=C1C(=O)OCC (stereo not given)
# output > 100 µM

# input Lookup CNC1CC(n2cc(C)c(=O)[nH]c2=O)OC1CO (stereo not given)
# output > 100 µM
